test system: C. albicans SC5314; experiment: MIC versus reference Candida strains (broth micro dilution); type: cell-based
Reported MIC values for the following compounds.
Your answer is read as µg/mL, so omit the unit and give the number.

See these solved cases before continuing.
• O=C([O-])CCCCCCCCCC#CC#Cc1ccco1.[K+] [Compound XII″] = 0.01
• O=C([O-])CCCCCCC/C=C\C#CC#Cc1ccco1.[K+] [Compound IV″] = 0.00125
• O=C(O)CCCCCCC/C=C\C#CC#Cc1ccco1 [Compound III″] = 0.0005

Q: Could you share which MIC value was measured for O=C(O)CCCCCCC/C=C/C#CC#Cc1ccco1 [VIII″] ?
A: 0.15

Origin of the recorded values: patent US8722910B2
